Exercise: state measured inhibition at 1 µM for each of the molecules provided.
- TESTED_SYSTEM: human tryptophan 2,3-dioxygenase (hTDO) (Homo sapiens, UniProt P48775)
- Construct: His tag (N); purchased BPS Bioscience, San Diego, Calif., USA; host or cells: E. coli
- Sequence (P48775 whole entry): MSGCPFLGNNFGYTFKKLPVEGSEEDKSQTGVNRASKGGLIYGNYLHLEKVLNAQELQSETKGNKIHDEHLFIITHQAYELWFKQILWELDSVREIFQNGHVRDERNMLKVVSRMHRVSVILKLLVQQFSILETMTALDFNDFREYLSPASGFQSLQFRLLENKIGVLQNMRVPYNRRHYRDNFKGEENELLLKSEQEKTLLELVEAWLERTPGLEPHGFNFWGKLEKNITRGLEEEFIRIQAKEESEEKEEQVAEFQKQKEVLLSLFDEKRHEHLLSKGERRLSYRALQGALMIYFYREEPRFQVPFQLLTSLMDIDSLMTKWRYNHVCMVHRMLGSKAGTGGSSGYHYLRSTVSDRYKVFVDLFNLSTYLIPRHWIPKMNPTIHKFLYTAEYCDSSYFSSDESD
- ASSAY_NOTES: In-vitro human tryptophan 2,3-dioxygenase (TDO) enzyme assay
- Type: biochemical
- COND: hTDO enzyme at 1.0 μM concentration

Would you be so kind as to report inhibition at 1 µM for each listed record?
1. CC1=C(c2ccccc2)C(CC(=O)C2CCOCC2)n2cncc21 (centres unmarked) [Example 100]
2. CC1=C(c2ccccc2)C(CC(=O)c2ccc(OCc3ccccc3)cc2)n2cncc21 (centres unmarked) [Example 75]
3. CC1=C(c2ccccc2)C(CC(=O)c2ccc(-c3ccccc3F)cc2)n2cncc21 (centres unmarked) [Example 58]
4. CC1=C(c2ccccc2)C(CC(=O)c2ccccc2)n2cncc21 (single isomer, unassigned) [Example 30]

1. ≥ 50%
2. ≥ 50%
3. ≤ 50%
4. ≥ 50%

Would you be so kind as to report inhibition at 1 µM for each listed record?
1. CC1=C(c2ccccc2)C(CC(O)C2CCN(C(=O)Nc3ccccc3)CC2)n2cncc21 (centres unmarked) [Example 158]
2. CC1=C(c2ccccc2)C(CC(=O)c2ccc(NC(=O)Cc3ccccc3F)cc2)n2cncc21 (centres unmarked) [Example 176]
3. CC1=C(c2ccccc2)C(CC(O)C2CCN(C(=O)C3CCCCC3)CC2)n2cncc21 (centres unmarked) [Example 149]
4. CC1=C(c2ccccc2)C(CC(O)c2ccc(-c3ccsc3)cc2)n2cncc21 (centres unmarked) [Example 60]

1. ≥ 50%
2. ≥ 50%
3. ≤ 50%
4. ≤ 50%

---

- TESTED_SYSTEM: human tryptophan 2,3-dioxygenase (hTDO) (Homo sapiens)
- Construct: His tag (N); purchased BPS Bioscience, San Diego, Calif., USA; host or cells: E. coli
- ASSAY_NOTES: In-vitro human tryptophan 2,3-dioxygenase (TDO) enzyme assay
- Type: biochemical
- COND: hTDO enzyme at 1.0 μM concentration
Exercise: state measured inhibition at 1 µM for each of the molecules provided.

Would you be so kind as to report inhibition at 1 µM for each listed record?
1. COC(=O)c1ccc(C(=O)CC2C(c3ccccc3)=C(C)c3cncn32)cc1 (single isomer, unassigned; isomer-i) [Example 71]
2. CC1=C(c2ccccc2)C(CC(O)C2CCN(S(C)(=O)=O)CC2)n2cncc21 (stereo not drawn) [Example 165]
3. CC1=C(c2ccccc2)C(CC(O)C2CCN(C(=O)Nc3cccc(Cl)c3)CC2)n2cncc21 (stereo not drawn) [Example 181]
4. O=C(CC1C(c2ccccc2)=C(c2ccccc2)c2cncn21)C1CCCCC1 (stereo not drawn) [Example 102]
5. CCOC(=O)N1CCC(C(=O)CC2C(c3ccccc3)=C(C)c3cncn32)CC1 (stereo not drawn) [Example 146]
6. CC1=C(c2ccccc2)C(CC(=O)c2cccc(C(F)(F)F)c2)n2cncc21 (stereo not drawn) [Example 29]

["≥ 50%", "≤ 50%", "≤ 50%", "≤ 50%", "≤ 50%", "≥ 50%"]

---

Exercise: state measured inhibition at 1 µM for each of the compounds provided.
- TESTED_SYSTEM: human tryptophan 2,3-dioxygenase (hTDO) (Homo sapiens, UniProt P48775)
- Construct: His tag (N); purchased BPS Bioscience, San Diego, Calif., USA; host or cells: E. coli
- ASSAY_NOTES: In-vitro human tryptophan 2,3-dioxygenase (TDO) enzyme assay
- Assay type: biochemical
- COND: hTDO enzyme at 1.0 μM concentration

A selection of reference data follows.
CCOC(=O)C1CCC([C@@H](O)CC2C(c3ccccc3)=C(C)c3cncn32)CC1 (stereo in doubt); ≥ 50%
CC1=C(c2ccccc2)C(CC(=O)c2cccc(F)c2)n2cncc21 (centres unmarked); ≥ 50%

Would you be so kind as to report inhibition at 1 µM for each listed record?
1. CC1=C(c2ccccc2)C(CC(=O)c2ccc(-c3ccc(O)cc3)cc2)n2cncc21 (centres unmarked)
2. COc1ccc(C(=O)CC2C(c3ccccc3)=C(C)c3cncn32)cc1 (centres unmarked)
3. CC1=C(c2ccccc2)C(CC(O)C2CCN(C(=O)Nc3cccc(C)n3)CC2)n2cncc21 (centres unmarked)
4. CC1=C(c2ccccc2)C(CC(=O)C2CCC(C(=O)Nc3ccc(F)cc3F)CC2)n2cncc21 (centres unmarked)
5. CC1=C(c2ccccc2)C(CC(O)C23CC4CC(CC(C4)C2)C3)n2cncc21 (centres unmarked)
6. CC1=C(c2ccccc2)C(CC(=O)C2CCC(C(=O)Nc3ccccc3)CC2)n2cncc21 (centres unmarked)

["≤ 50%", "≥ 50%", "≤ 50%", "≥ 50%", "≥ 50%", "≥ 50%"]

---

- TESTED_SYSTEM: human indoleamine 2,3-dioxygenase 1 (hIDO1) (Homo sapiens, UniProt P14902)
- Construct: His tag (N); purchased BPS Bioscience, San Diego, Calif., USA; host or cells: E. coli
- Sequence (P14902 whole entry): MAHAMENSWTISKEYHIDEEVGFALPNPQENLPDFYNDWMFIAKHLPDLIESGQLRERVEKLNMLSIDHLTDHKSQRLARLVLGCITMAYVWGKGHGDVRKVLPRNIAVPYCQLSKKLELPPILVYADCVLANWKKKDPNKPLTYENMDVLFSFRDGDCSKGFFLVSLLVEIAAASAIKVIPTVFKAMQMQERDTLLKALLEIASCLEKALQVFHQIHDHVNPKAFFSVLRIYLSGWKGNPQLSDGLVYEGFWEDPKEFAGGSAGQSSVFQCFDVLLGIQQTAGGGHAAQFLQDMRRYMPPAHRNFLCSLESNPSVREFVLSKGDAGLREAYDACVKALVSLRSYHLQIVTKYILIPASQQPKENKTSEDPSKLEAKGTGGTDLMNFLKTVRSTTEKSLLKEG
- ASSAY_NOTES: In-vitro human indoleamine 2,3-dioxygenase 1 (IDO1) enzyme assay
- Format: biochemical
- COND: hIDO1 enzyme at 10.0 μM concentration
Exercise: state measured inhibition at 10 µM for each of the compounds provided.

A selection of reference data follows.
CC1=C(c2ccccc2)C(CC(O)C2CCN(C(=O)Cc3ccccc3)CC2)n2cncc21 (stereo not drawn); ≥ 50%
CC1=C(c2ccccc2)C(CC(=O)c2ccc(N(C)C)cc2)n2cncc21 (stereo not drawn); ≥ 50%
CCOC(=O)N1CCC(C(O)CC2C(c3ccccc3)=C(C)c3cncn32)CC1 (stereo not drawn); ≥ 50%
CC1=C(c2ccccc2)C(CC(=O)c2ccc(N3CCOCC3)cc2)n2cncc21 (stereo not drawn); ≥ 50%
CC1=C(c2ccccc2)C(CC(=O)c2ccc(C)cc2)n2cncc21 (stereo not drawn); ≥ 50%

Would you be so kind as to report inhibition at 10 µM for each listed record?
1. CC1=C(c2ccccc2)C(CC(=O)C2CC2)n2cncc21 (stereo not drawn)
2. CC1=C(c2ccccc2)C(CC(O)C2CCN(C(=O)Nc3ccccn3)CC2)n2cncc21 (stereo not drawn)
3. O=C(CC1C2=C(CCCC2)c2cncn21)c1cccc(OCc2ccccc2)c1 (stereo not drawn)
4. CC1=C(c2ccccc2)c2cncn2C1CC(=O)c1ccccc1 (stereo not drawn)

1: ≥ 50%; 2: ≥ 50%; 3: ≤ 50%; 4: ≤ 50%

---

- TESTED_SYSTEM: human indoleamine 2,3-dioxygenase 1 (hIDO1) (Homo sapiens, UniProt P14902)
- Construct: His tag (N); purchased BPS Bioscience, San Diego, Calif., USA; host or cells: E. coli
- ASSAY_NOTES: In-vitro human indoleamine 2,3-dioxygenase 1 (IDO1) enzyme assay
- Assay type: biochemical
- COND: hIDO1 enzyme at 1.0 μM concentration
Exercise: state measured inhibition at 1 µM for each of the compounds provided.

A selection of reference data follows.
CC1=C(c2ccccc2)C(CC(=O)c2cccc(-c3ccccc3)c2)n2cncc21 (centres unmarked) [Example 69]; ≥ 50%
CC1=C(c2ccccc2)C(CC(O)C2CCN(C(=O)c3ccccn3)CC2)n2cncc21 (single isomer, unassigned) [Example 160]; ≤ 50%
CC1=C(c2ccccc2)C(CC(O)C2CCN(C(=O)Cc3ccccc3F)CC2)n2cncc21 (centres unmarked) [Example 139]; ≥ 50%
CC1=C(c2ccccc2)C(CC(O)C2CCN(C(=O)Nc3ccccn3)CC2)n2cncc21 (centres unmarked) [Example 167]; ≥ 50%
CC1=C(c2ccccc2)C(CC(=O)C2CCN(S(=O)(=O)c3ccccc3)CC2)n2cncc21 (centres unmarked) [Example 143]; ≤ 50%

Would you be so kind as to report inhibition at 1 µM for each listed record?
1. CC1=C(c2ccccc2)C(CC(O)c2ccc(-c3ccsc3)cc2)n2cncc21 (centres unmarked) [Example 60]
2. CC1=C(c2ccccc2)C(CC(O)C2CCN(C(=O)c3cccnc3)CC2)n2cncc21 (centres unmarked) [Example 157]
3. CC1=C(c2ccccc2)C(CC(=O)C2CCN(C(=O)C3CCCCC3)CC2)n2cncc21 (centres unmarked) [Example 147]
4. CC1=C(c2ccccc2)C(CC(=O)C2CCC(C(=O)Nc3ccc(F)cc3F)CC2)n2cncc21 (centres unmarked) [Example 110]
5. CC1=C(c2ccccc2)c2cncn2C1CC(=O)c1ccccc1 (centres unmarked) [Example 21]
6. CC1=C(c2ccccc2)C(CC(=O)c2ccc(Oc3ccccc3F)cc2)n2cncc21 (centres unmarked) [Example 76]
7. CC1=C(c2ccccc2)C(CC(=O)c2ccc(-c3cccnc3)cc2)n2cncc21 (centres unmarked) [Example 55]

≤ 50%
≥ 50%
≤ 50%
≤ 50%
≤ 50%
≥ 50%
≥ 50%

Would you be so kind as to report inhibition at 1 µM for each listed record?
1. CC1=C(c2ccccc2)C(CC(O)C2CCN(C(=O)C(C)C)CC2)n2cncc21 (centres unmarked) [Example 187]
2. CCCCC(O)CC1C(c2ccccc2)=C(C)c2cncn21 (centres unmarked) [Example 170]
3. CC1=C(c2ccccc2)C(CC(=O)c2ccc(Cl)cc2)n2cncc21 (centres unmarked) [Example 38]
4. O=C(CC1C(c2ccccc2)=Cc2cncn21)c1ccccc1 (centres unmarked) [Example 169]
5. CC1=C(c2ccccc2F)C(CC(=O)C2CCC(O)CC2)n2cncc21 (single isomer, unassigned) [Example 97]

≥ 50%
≤ 50%
≥ 50%
≤ 50%
≤ 50%
